Recorded measurements of Percent Effect, one per entry
target: Protein translocase subunit SecA (Escherichia coli (strain K12)); test: Assay to Identify E. coli SecA ATPase Inhibitors; format: functional; design: scale not given: direction of the effect not stated beside the values; settings: 30 µM
Potency and affinity values are given separately.
Value expressed in %; do not type the unit.

| molecule | experimental.value |
| --- | --- |
| CC(NC(=O)NCC1(N2CCCCC2)CCCCC1)c1nncn1C (stereo unspecified) | -6.18 |
| O=C(Cn1cc(C(=O)O)ccc1=O)NCc1ccc(F)c(Cl)c1 | -2.28 |
| O=C(CCOc1cccc(F)c1)N1CCCC(n2cncn2)C1 (stereo unspecified) | -2.79 |
| COc1cc2nc3n(c(=O)c2cc1OC)CCN(C(C)=O)CC3 | -1.86 |
| CCOc1ccc(-n2nnc(C(=O)O)c2-c2ccncc2)cc1 | -0.35 |

Field: next molecule
q: Under Protein translocase subunit SecA (Escherichia coli (strain K12)), report Percent Effect for CCOCCn1nc(C)cc1C(=O)N1CCOCC(CO)C1 (stereo unspecified)
a: -2.3

----------
target: Chromo domain-containing protein 1 (Saccharomyces cerevisiae (strain ATCC 204508 / S288c) (Baker's yeast)) (UniProt P32657); assay: ScCHD-1 Enzyme Inhibition Assay; type: functional; parameters: scale not given: in the data most compounds retested in dose-response had high values; conditions: 30 µM
Sequence (P32657 whole entry, the tested form may be a part): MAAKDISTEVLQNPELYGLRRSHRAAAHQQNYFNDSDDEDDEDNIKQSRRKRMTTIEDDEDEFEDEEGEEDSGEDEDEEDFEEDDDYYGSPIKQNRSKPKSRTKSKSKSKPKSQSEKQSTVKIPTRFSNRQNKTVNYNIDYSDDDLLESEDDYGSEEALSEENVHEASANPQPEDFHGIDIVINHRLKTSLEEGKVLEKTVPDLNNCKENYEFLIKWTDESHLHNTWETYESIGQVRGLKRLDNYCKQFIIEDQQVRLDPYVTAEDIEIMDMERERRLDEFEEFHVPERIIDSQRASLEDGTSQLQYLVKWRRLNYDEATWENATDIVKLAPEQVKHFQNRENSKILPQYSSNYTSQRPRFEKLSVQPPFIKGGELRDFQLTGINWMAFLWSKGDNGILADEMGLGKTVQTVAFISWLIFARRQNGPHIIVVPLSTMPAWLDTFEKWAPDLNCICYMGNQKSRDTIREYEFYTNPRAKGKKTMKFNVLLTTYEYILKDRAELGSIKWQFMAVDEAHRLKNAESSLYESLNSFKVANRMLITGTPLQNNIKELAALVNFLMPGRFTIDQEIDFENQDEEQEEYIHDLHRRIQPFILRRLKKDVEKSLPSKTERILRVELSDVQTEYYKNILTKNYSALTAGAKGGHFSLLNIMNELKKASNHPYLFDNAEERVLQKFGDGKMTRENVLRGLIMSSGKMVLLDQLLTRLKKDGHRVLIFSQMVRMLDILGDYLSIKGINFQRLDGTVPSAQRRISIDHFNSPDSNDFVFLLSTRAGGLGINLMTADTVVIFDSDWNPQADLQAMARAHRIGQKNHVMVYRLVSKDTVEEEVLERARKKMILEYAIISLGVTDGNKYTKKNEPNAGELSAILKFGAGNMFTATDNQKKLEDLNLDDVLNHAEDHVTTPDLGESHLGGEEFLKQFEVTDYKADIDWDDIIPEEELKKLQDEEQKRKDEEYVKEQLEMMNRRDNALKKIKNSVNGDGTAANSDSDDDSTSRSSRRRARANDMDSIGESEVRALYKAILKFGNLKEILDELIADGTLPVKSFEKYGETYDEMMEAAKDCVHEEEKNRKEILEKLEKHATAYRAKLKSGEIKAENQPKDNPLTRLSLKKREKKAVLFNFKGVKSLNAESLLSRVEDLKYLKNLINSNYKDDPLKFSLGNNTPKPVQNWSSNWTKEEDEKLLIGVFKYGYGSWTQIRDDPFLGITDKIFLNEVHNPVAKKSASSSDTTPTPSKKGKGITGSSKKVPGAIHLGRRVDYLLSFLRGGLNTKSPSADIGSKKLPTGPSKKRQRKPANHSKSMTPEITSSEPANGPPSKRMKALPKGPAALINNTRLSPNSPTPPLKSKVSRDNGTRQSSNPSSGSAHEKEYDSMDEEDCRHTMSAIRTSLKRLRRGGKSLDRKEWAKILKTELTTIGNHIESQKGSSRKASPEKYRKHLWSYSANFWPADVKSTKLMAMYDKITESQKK
Recorded measurements of Percent Effect, one per entry
Value expressed in %; do not type the unit.

Example entries begin here.
| compound | Percent Effect / % |
| --- | --- |
| O=C1N(Cc2cccc(F)c2F)CCCC1(O)CN1CCCOCC1 (stereo unspecified) | -4.58 |
| O=C(CCN1CCCC1C1CCCCC1)N1CCc2sccc2C1 (stereo unspecified) | 10.3 |
| c1ccc(-c2cc(CN3CCC(c4ccn[nH]4)CC3)on2)cc1 | -3.02 |

q: Give the measured Percent Effect for Cc1nn(C)c(N2CCOCC2)c1CNCc1ccnc(N(C)C)c1
a: -2.85

q: Give the measured Percent Effect for CCOc1ccc(-n2nnc(C(=O)O)c2-c2ccncc2)cc1
a: -5.18

q: Give the measured Percent Effect for Cc1cc(C)c(CNC(=O)NCC2CCCO2)c(=O)[nH]1 (stereo unspecified)
a: 2.35

----------
biological target: Tyrosyl-tRNA synthetase, putative (Trypanosoma cruzi (strain CL Brener)); test: Trypanosoma cruzi tyrosyl tRNA synthetase (TcYRS) _High Tyrosine SOP; type: functional; set-up: scale not given: in the data most compounds retested in dose-response had high values; conditions: 30 µM
quantity: Percent Effect
Hi, when you answer, please include the unit after the number. Thanks!

Example entries begin here.
| compound | quantity | experimental.value |
| --- | --- | --- |
| COCCC(=O)N1CCN(C)c2ncccc2C1 | Percent Effect | 5.38% |
| Cn1cccc1C(=O)N1CCC2(CC1)CN(c1cncnc1)C(=O)CO2 | Percent Effect | -69.2% |
| CCC1=N[C@@]2(CC[C@@H]3CN(S(=O)(=O)CC(C)C)C[C@@H]32)C(=O)N1C | Percent Effect | 5.29% |
| Cc1nc(CN2CCCC(Cn3cc(CCO)nn3)C2)c[nH]1 (centres undefined) | Percent Effect | 1.59% |
| CC(C)Oc1ncccc1CNC(=O)N1CCC(C(N)=O)C1 (centres undefined) | Percent Effect | 1.47% |

q: Give the measured Percent Effect for O=C(Nc1cn[nH]c1)c1ccc(O)nc1
a: 8.33%

q: Give the measured Percent Effect for c1cnn(CC2CN(CC3CCCC3)CCO2)c1 (centres undefined)
a: 5.21%

q: Give the measured Percent Effect for Cc1ccc(C)c(C(NC(=O)C2CC2)c2cccnc2)c1 (centres undefined)
a: 4.23%

q: Give the measured Percent Effect for CN(C)CCOCC1CN(CC2CCOCC2)Cc2nnn(C)c21 (centres undefined)
a: 5.38%

q: Give the measured Percent Effect for COCCNC(=O)[C@H]1CN(Cc2scnc2C)C[C@H]2OCC[C@@H]12
a: 5.21%
